- assayedTarget: T1, recombinant human FasR (Homo sapiens, UniProt P25445)
- T1 construct: Fas receptor (FasR, CD95), human, recombinant; The FasR of the BLI and SPR experiments; Details are in Supplementary Protocols 8-10; also called recombinant FasR
- T1 sequence (P25445 26-335): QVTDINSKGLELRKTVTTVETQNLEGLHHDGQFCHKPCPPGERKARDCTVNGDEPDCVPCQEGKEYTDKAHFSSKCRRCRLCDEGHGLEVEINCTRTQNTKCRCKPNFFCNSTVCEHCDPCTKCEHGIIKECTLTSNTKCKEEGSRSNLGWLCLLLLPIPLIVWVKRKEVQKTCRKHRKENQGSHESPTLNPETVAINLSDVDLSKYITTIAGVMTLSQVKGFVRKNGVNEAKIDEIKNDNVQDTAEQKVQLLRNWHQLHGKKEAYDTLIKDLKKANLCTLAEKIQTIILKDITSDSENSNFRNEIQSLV
- protocolText: BLI; Octet Red384; recombinant human FasR; 1:1 Langmuir model; at least in duplicate; who was immobilised is not told (Supplementary Protocols 8-10)
- runConditions: both partners purified
The following binders are listed with their measured kon values.
Note: unit M⁻¹ s⁻¹ is implicit; provide only the numeric part.

Here are 3 binders together with their reported answers.
binder	kon, M⁻¹ s⁻¹
anti-Fas receptor scFv E09 (scFv, V domains shown, VH of E09; scFv linker; VL of E09; also called parent; wild-type E09) VH: QLQLQESGPGLVKPSETLSLTCTVSGASISANSYYGVWVRQSPGKGLEWVGSIAYRGNSNSGSTYYNPSLKSRATVSVDTSKNQVSLRLTSVTAADTALYYCARRQLLDDGTGYQWAAFDVWGQGTMVTVSS VL: QSVLTQPPSVSEAPRQTVTISCSGNSFNIGRYPVNWYQQLPGKAPKLLIYYNNLRFSGVSDRFSGSKSGTSASLAIRDLLSEDEADYYCSTWDDTLKGWVFGGGTKVTVL	236000
A07a IgG (antibody, V domains shown, numbers count on: Kabat numbering; IgG heavy constant region; light constant region; IgG made from the scFv A07a) VH: QLQLQESGPGLVKPSETLSLTCTVPGASISANSYYGVWVRQSPGKGLEWVGSIAYRGNSNSGSTYYNPSLKGRATVSVDTSKNQVSLRLTSVTAADTALYYCARRQLLDDGTGYQWAAFDNWDQGTMVTVSS VL: QSVLTQPPSVSEAPRQTVTISCSGNSFNIGRYPVNWYQQLPGKAPKLLIYSNNLRFSGVSDRFSGSKSGTSASLAIRDLLSEDEADYYCSTWDDTLKGWVFGGGTKVTVL	277000
A11b scFv (scFv, V domains shown, numbers count on: Kabat numbering; scFv linker, as in m6; Selected by BeSD, round IV) VH: QLQLQESGPGLVKPSETLSLTCTVPGASISANSYYGVWVRQSPGKGLEWVGSIAYRGNSNSGSTYYNPSLKSRATVSVDTSKNQVSLRLTSVTAADTALYYCARRQLLDDGTGYQWAAFDVWGQGTMVTVSG VL: QSVLTQPPSVSEAPRQTVTISCSGNSFNTGRYPVNWYQQLPGKAPKLLIYSNNLRLSGVSDRFSGSKSGTSASLAIRDLLSEDEADYYCSTWDDTLEGWVFGGGTKVTVL	130000

Shifting focus to the binder that follows.
// field: kon; key: R4aS IgG (antibody, V domains shown, numbers count on: Kabat numbering; IgG heavy constant region; light constant region; IgG; also called antibody R4aS) VH: QLQLQESGPGLVKPSETLSLTCTVPGASISANSYYGVWVRQSPGKGLEWVGSIAYRGNSNSGSTYYNPSLKSRATVSVDTSKNQVSLRLTSVTAADTALYYCARRQLLDDGTGYQWAAFDNWDQGTMVTVSS VL: QSVLTQPPSVSEAPRQTVTISCSGNSFNTGRYPVNWYQQLPGKAPKLLIYSNNLRLSGVSDRFSGSKSGTSASLAIRDLLSEDEADYYCSTWDDTLEGWVFGGGTKVTVL ; value = 249000
